Value source: ChEMBL document CHEMBL1126773

- Assay: Logarithm of cumulative stability constant was determined
Measure Name: Log beta3
// response body must contain only the number

In the examples that follow, each entry is paired with its recorded Log beta3.
| Compound | Measure Name | Value Reported |
| --- | --- | --- |
| CCCn1ccc(=O)c(O)c1C | Log beta3 | 37.7 |
| Oc1ccccc1O | Log beta3 | 44.9 |
| CCn1cccc(O)c1=O | Log beta3 | 32 |
| O/N=C/c1ccccn1 | Log beta3 | 30 |
| Oc1cccc2cccnc12 | Log beta3 | 37 |
| Cc1nccc(O)c1O | Log beta3 | 37.2 |
| CCn1ccc(=O)c(O)c1C | Log beta3 | 37.7 |
| CC(=O)NO [ACETOHYDROXAMIC ACID] | Log beta3 | 28.3 |

Consider the record given below.
Q: Endpoint output: Log beta3 of Cc1c(O)c(=O)ccn1C . Value?
A: 37.2

###

The following compounds are shown together with reported Activity values.
- Target Of Assay: Serotransferrin (Homo sapiens)
- Assay: Percentage of removal of iron from iron-protein-transferrin
- Format: functional
- Set-up: concentration or dose not given beside the values

Please review the following examples before continuing.
| Smiles Repr | Activity |
| --- | --- |
| Cc1c(O)c(=O)ccn1CCCC(=O)O | 53% |
| Cc1c(O)c(=O)ccn1CCO | 47% |
| Cc1c(O)c(=O)ccn1C(C)C | 51% |
| Cc1c(O)c(=O)ccn1CCN | 56% |
| Cc1c(O)c(=O)ccn1C | 54% |
| CCCn1ccc(=O)c(O)c1C | 52% |

Q: Reported Activity, compound CC(=O)N(O)CCCCCNC(=O)CCC(=O)N(O)CCCCCNC(=O)CCC(=O)N(O)CCCCCN : ____
A: 5%

###

- Assay: Partition coefficient (logD7.4)
- Format: physicochemical
- Condition: octanol/water, pH 7.4
Measure Name: logD
Just the number, please.

Would you please look over these solved cases?
| Compound | logD |
| --- | --- |
| CCc1nccc(O)c1O | 0.0453 |
| CCCn1ccc(=O)c(O)c1CC | 0.702 |
| Cc1c(O)c(=O)ccn1CCCN | -2.1 |
| CCN(CC)C(=O)CCn1ccc(=O)c(O)c1C | -0.361 |
| CCCCCCn1ccc(=O)c(O)c1C | 1.9 |

Q: Param item = Cc1c(O)c(=O)ccn1CCC(=O)N(C)C ; retrieve measured logD.
A: -1.16

Q: Tell me the measured logD of CCc1c(O)c(=O)ccn1C(C)C , please.
A: 0.732

Q: Would you kindly share the measured logD for CCOCCCn1ccc(=O)c(O)c1CC ?
A: 0.716

###

- Assay: Acid dissociation constant (pKa2) was determined
- Condition: pKa2
Measure Name: pKa
Number, no unit, nothing else.

The examples below pair each entry with its known result.
| Compound | Measure Name | Value Reported |
| --- | --- | --- |
| CCn1ccc(=O)c(O)c1C | pKa | 9.88 |
| Cc1nccc(O)c1O | pKa | 9.76 |
| CC(=O)NO [ACETOHYDROXAMIC ACID] | pKa | 9.4 |
| CCCCn1ccc(=O)c(O)c1C | pKa | 9.87 |
| Oc1ccncc1O | pKa | 9.01 |

Then this compound:
Q: Item under review: CCCn1ccc(=O)c(O)c1C . Reported pKa?
A: 9.92

###

- Assay: Acid dissociation constant (pKa1) was determined
- Format: physicochemical
- Condition: read-out: pKa1
Measure Name: pKa
Number only, please.

| Molecule | pKa |
| --- | --- |
| Cc1nccc(O)c1O | 3.7 |
| CCn1ccc(=O)c(O)c1C | 3.65 |
| Oc1ccccc1O [CATECHOL] | 9.2 |

Q: What pKa value was documented for this molecule, Oc1ccncc1O ?
A: 3.34

Q: Could you tell me which pKa is on file for CCCCn1ccc(=O)c(O)c1C ?
A: 3.62

Q: Report pKa for CCCn1ccc(=O)c(O)c1C please.
A: 3.62

###

# Activity per entry
- Target Of Assay: Serotransferrin (Homo sapiens)
- Assay: Percentage of removal of iron from iron-protein-transferrin
- Assay type: functional
- Design: concentration or dose not given beside the values
Report as a plain number; the unit % is understood.

Consider the reported Activity for these compounds:
| Smiles Repr | Unit Annotation | Activity |
| --- | --- | --- |
| COCCn1ccc(=O)c(O)c1C | % | 55 |
| CCCCn1ccc(=O)c(O)c1C | % | 52 |

The record that follows has no Activity shown yet.
Q: Hi! What's the reported Activity for CCOCCCn1ccc(=O)c(O)c1C on Serotransferrin (Homo sapiens)?
A: 49

###

- Assay: Partition coefficient (logD7.4)
- Assay type: physicochemical
- Condition: octanol/water, pH 7.4
logD vs -0.3: less than gives MET; not less than gives NOT MET.

| Molecule | Class Assignment |
| --- | --- |
| CNC(=O)CCn1ccc(=O)c(O)c1C | MET |
| COCC(C)n1ccc(=O)c(O)c1C (stereo not given) | NOT MET |
| Cc1c(O)c(=O)ccn1CCCCO | MET |

Q: Could you please tell me whether logD recorded for Cc1c(O)c(=O)ccn1C(C)C is less than -0.3?
A: NOT MET

Q: Just wondering, is logD of COCCn1ccc(=O)c(O)c1C below -0.3?
A: MET

Q: Lab note: confirm whether the reported logD for this molecule is below -0.3, equality not counting. molecule: Cc1c(O)c(=O)ccn1CCCO
A: MET

Q: Dear colleague, could you confirm whether logD of CCCCn1ccc(=O)c(O)c1CC falls below -0.3? Thanks.
A: NOT MET

Q: I'd appreciate it if you could check whether CCNC(=O)CCn1ccc(=O)c(O)c1C has logD smaller than -0.3.
A: MET

Q: Confirm or reject: logD of CCN(C)C(=O)CCn1ccc(=O)c(O)c1C lies strictly below -0.3
A: MET

Q: Item CCOCCCn1ccc(=O)c(O)c1C : logD beneath -0.3, strictly?
A: NOT MET

Q: Given CCCCn1ccc(=O)c(O)c1C , is recorded logD strictly lower than -0.3?
A: NOT MET

Q: Find out if reported logD for CCn1ccc(=O)c(O)c1C is less than -0.3
A: MET

Q: Hello, I'm reviewing records and need to know if logD of CCc1c(O)c(=O)ccn1CCOC is below -0.3. Could you check?
A: NOT MET

###

- Assay: Partition coefficient (logD7.4)
- Assay type: physicochemical
- Condition: octanol/water, pH 7.4
# note: exactly -0.5 is not below, so it is 0.0; use 1.0 for logD strictly under it

Here are 5 molecules together with their reported answers.
| Molecule | Class Assignment |
| --- | --- |
| CCc1c(O)c(=O)ccn1CC | 0.0 |
| Cc1c(O)c(=O)ccn1CCO | 1.0 |
| CCCCCCn1ccc(=O)c(O)c1CC | 0.0 |
| CCCCCn1ccc(=O)c(O)c1C | 0.0 |
| Cc1c(O)c(=O)ccn1CCN | 1.0 |

Q: I wonder whether Cc1c(O)c(=O)ccn1C [DEFERIPRONE] has logD below -0.5. Can you tell?
A: 1.0

Q: Given CCCNC(=O)CCn1ccc(=O)c(O)c1C , is recorded logD strictly lower than -0.5?
A: 0.0

Q: Take the molecule Cc1c(O)c(=O)ccn1CCC(=O)NC(C)C and say whether its logD is less than -0.5.
A: 0.0

Q: logD strictly < -0.5 for this molecule? CCCCCCCCn1ccc(=O)c(O)c1C
A: 0.0

Q: Dear reviewer, please state whether CCc1c(O)c(=O)ccn1CCO has logD strictly beneath -0.5.
A: 1.0

Q: State whether -0.5 exceeds logD recorded for CCc1c(O)c(=O)ccn1C .
A: 0.0
